Reference for the values: paper PMC12328794

molecular target: cytosolic domain of human Fis1 (Fis1_ΔTM, residues 1−123) (human, UniProt Q9Y3D6 1-123); test: SPR
recorded-metric: pKd
Remember, pKd is on a log scale: it is -log10 of the molar concentration.

Give the reported pKd for this binder. Bap31_CC2 D224K (domain or fragment) LDVGNAEVKLEEENRSLKADLQKLKDELASTKQKLEKAENQVLAMRKQSEGLTKEYKRLLEEHAKLQAAVDGPMDKKEE
3.81
